System: barnyardgrjass
procedure.summary: Foliar spread test for upland field
Assay type: in vivo, Eschinochloa crusgalli
Parameters: key: 0 = normal development, 5 = all killed (6 ranks vs. untreated)
reported.conditions: foliar spray, 500 ppm, 3 weeks, glass house 25° C.
value.type: Effects Barnyardgrass

| compound.structure.string | target.entity | value.type | measured.value |
| --- | --- | --- | --- |
| CC/C(=C\c1ccc(F)c(C(F)(F)F)c1)c1nc2cc(Cl)ccc2o1 | barnyardgrjass | Effects Barnyardgrass | 2 |
| Fc1ccc2nc(-c3cccc(Oc4cccc(C(F)(F)F)c4)n3)oc2c1 | barnyardgrjass | Effects Barnyardgrass | 5 |
| Fc1ccc2nc(-c3cccc(Oc4ccc(F)c(C(F)(F)F)c4)n3)oc2c1 | barnyardgrjass | Effects Barnyardgrass | 1 |
| CCCC(=Cc1cccc(C(F)(F)F)c1)c1nc2cc(Cl)ccc2o1 | barnyardgrjass | Effects Barnyardgrass | 3 |
| CCCC(=Cc1cccc(C(F)(F)F)c1)c1nc2cc(C(F)(F)F)ccc2o1 | barnyardgrjass | Effects Barnyardgrass | 2 |
